# study-target: SHP2-C SH2
# experiment-notes: SH2 binding enrichment of the phosphorylated peptide, bacterial display (enrichment ratio); higher = better substrate or ligand; peptides without Tyr show the background
readout-type: SH2 binding enrichment

TTEHIYGDNFF [UBA7_Y524]    0.577
STEPQYQPGEN [SRC_Y530]    0.712
KLSCSYSHLSA [C4BPA_Y470_W473L]    0.734
KCLAVYQAGAR [APOE_Y180_R176C]    0.628

###

# study-target: SHP2-C SH2;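 also: peptide library displayed on the E. coli surface as eCPX fusions, selected cells deep-sequenced, score is each peptide's frequency after selection divided by its frequency in the input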
# experiment-notes: SH2 binding enrichment of the phosphorylated peptide, bacterial display (enrichment ratio); higher = better substrate or ligand; peptides without Tyr show the background
readout-type: SH2 binding enrichment

AKLKDYYIFNK [CCDC42_Y149]    0.711
PFSEPYADFGG [APBA1_Y187_YF]    0.659
TYGQVYKGRHV [TNIK_Y40]    0.964
DDEVFYSPRSL [OTC_Y317]    0.647
LIDGFYRLTED [JAK2_Y373_A377E_YF]    0.678
PAIFTYDEFKK [COL8A2_Y648_T645I_YF]    0.888
SVTCTYPPALN [TP53_Y126_S127P]    0.617
SVMAEYGLFRA [VSX2_Y219_G223R_YF]    0.627
TNITEYCRDLI [RECQL_Y492_K487T]    0.6
RSDSSYRMSAT [NHS_Y1532]    0.809
PSAELYSNALP [PDGFRB_Y716]    0.734
